Here, each record is paired with measured IC50 data.
- targetDesc: HLA-A03.01 (Homo sapiens)
- Sequence (P04439 25-365): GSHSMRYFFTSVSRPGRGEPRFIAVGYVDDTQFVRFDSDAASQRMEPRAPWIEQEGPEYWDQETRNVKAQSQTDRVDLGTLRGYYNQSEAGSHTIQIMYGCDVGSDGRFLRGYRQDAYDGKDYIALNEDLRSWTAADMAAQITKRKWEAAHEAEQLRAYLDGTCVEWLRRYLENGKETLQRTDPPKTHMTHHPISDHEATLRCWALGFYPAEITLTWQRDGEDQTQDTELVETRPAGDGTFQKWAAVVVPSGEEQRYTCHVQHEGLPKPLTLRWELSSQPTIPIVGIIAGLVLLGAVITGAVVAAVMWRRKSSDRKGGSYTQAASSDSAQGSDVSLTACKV
- Sequence (P61769 21-119 partner): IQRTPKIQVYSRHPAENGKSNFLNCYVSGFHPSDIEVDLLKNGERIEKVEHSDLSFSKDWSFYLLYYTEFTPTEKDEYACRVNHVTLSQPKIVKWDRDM
- experimentalProtocol: Class I MHC peptide binding affinity (displacement of radiolabeled reference peptide)
- studyConditions: allele A03.01; read-out: Observed Affinity (IC50; (nM))
Where a SMILES comes first, the peptide text is derived from it.
Please reply with the bare figure in nM and do not write the unit itself.

{"columns": ["compound", "IC50 / nM"],
 "data": [
  ["CC(C)C[C@H](NC(=O)[C@H](Cc1ccccc1)NC(=O)[C@H](CO)NC(=O)[C@@H](N)CC(C)C)C(=O)N[C@@H](CO)C(=O)N[C@@H](CO)C(=O)N[C@@H](Cc1c[nH]c2ccccc12)C(=O)N[C@@H](CC(=O)O)C(=O)N[C@@H](Cc1ccc(O)cc1)C(=O)N[C@@H](CCCNC(=N)N)C(=O)O (H-LSFLSSWDYR-OH; N-terminus and C-terminus assumed)", 101],
  ["CC[C@H](C)[C@H](N)C(=O)N[C@H](C(=O)N[C@H](C(=O)N[C@H](C(=O)N[C@@H](CCCCN)C(=O)N[C@@H](C)C(=O)N[C@H](C(=O)N[C@@H](CCC(=O)O)C(=O)N[C@H](C(=O)N[C@@H](CCCCN)C(=O)O)[C@@H](C)O)[C@@H](C)O)C(C)C)[C@@H](C)O)[C@@H](C)O (H-ITTVKATETK-OH; N-terminus and C-terminus assumed)", 1250],
  ["CC[C@H](C)[C@H](NC(=O)[C@H](C)NC(=O)[C@H](CS)NC(=O)[C@@H](NC(=O)[C@H](Cc1ccc(O)cc1)NC(=O)[C@@H](N)[C@@H](C)O)[C@@H](C)O)C(=O)N[C@H](C(=O)N[C@H](C(=O)N[C@H](C(=O)N[C@@H](CCCCN)C(=O)O)C(C)C)[C@@H](C)O)[C@@H](C)O (H-TYTCAITTVK-OH; N-terminus and C-terminus assumed)", 2360],
  ["CC(C)C[C@H](NC(=O)[C@H](Cc1ccccc1)NC(=O)[C@H](CO)NC(=O)[C@H](CC(C)C)NC(=O)[C@@H](N)CS)C(=O)N[C@@H](CO)C(=O)N[C@@H](CO)C(=O)N[C@@H](Cc1c[nH]c2ccccc12)C(=O)N[C@@H](CC(=O)O)C(=O)N[C@@H](Cc1ccc(O)cc1)C(=O)O (H-CLSFLSSWDY-OH; N-terminus and C-terminus assumed)", 2710],
  ["CC[C@H](C)[C@H](NC(=O)[C@@H](N)CCCCN)C(=O)N[C@@H](CCSC)C(=O)N[C@@H](Cc1ccccc1)C(=O)N[C@@H](C)C(=O)N[C@H](C(=O)N[C@@H](CC(C)C)C(=O)N[C@@H](CCC(N)=O)C(=O)N[C@@H](CCCNC(=N)N)C(=O)O)[C@@H](C)O (H-KIMFATLQR-OH; N-terminus and C-terminus assumed)", 2.5]
]}

Next up:
Input: // Input: CC(C)[C@H](NC(=O)[C@@H](N)CCCNC(=N)N)C(=O)N[C@@H](CC(N)=O)C(=O)N[C@H](C(=O)N[C@@H](C)C(=O)N[C@@H](Cc1c[nH]c2ccccc12)C(=O)N[C@@H](CCCCN)C(=O)N[C@H](C(=O)N[C@@H](CCCCN)C(=O)O)[C@@H](C)O)[C@@H](C)O (H-RVNTAWKTK-OH; N-terminus and C-terminus assumed) . Output its IC50 only.
Output: 8.6
